procedureDetails: Solubility measurement in acetone
testContext: ultrasonic stirring, visual
Solubility/wt % reference
reportedEndpoint: Solubility/wt %

compound=C=C(C)C(=O)Oc1cccc(OC(=O)C(=C)C)c1CCc1cc2ccccc2c2c1sc1ccc3ccccc3c12 result=">20 wt %"
compound=C=C(C)C(=O)Oc1ccc2ccccc2c1CCc1cc2ccccc2c2c1sc1ccc3ccccc3c12 result=">20 wt %"
compound="C=C(C)C(=O)OCc1cc2ccccc2c2c1sc1ccc3ccccc3c12 [Comparative Example 1, reference compound]" result="<10 wt %"
compound="C=C(C)C(=O)Oc1ccccc1CCc1cc2ccccc2c2c1sc1ccc3ccccc3c12 [Example 5]" result=">20 wt %"
compound=C=C(C)C(=O)Oc1cccc(CCc2cc3ccccc3c3c2sc2ccc4ccccc4c23)c1 result=">20 wt %"
compound=C=C(CCCCCCCCCC)C(=O)Oc1ccccc1CCc1cc2ccccc2c2c1sc1ccc3ccccc3c12 result=">20 wt %"
compound=C=C(C)C(=O)Oc1ccc(CCc2cc3ccccc3c3c2sc2ccc4ccccc4c23)cc1 result=">20 wt %"
compound="C=C(C)C(=O)OC(C)c1cc2ccccc2c2c1sc1ccc3ccccc3c12 (stereo not drawn) [Comparative Example 2, reference compound]" result="<11 wt %"
compound="C=C(C)C(=O)Oc1ccccc1CCc1cc2ccccc2c2c1sc1ccc3ccccc3c12 [Example 1]" result=">20 wt %"
compound=C=CC(=O)Oc1cccc(OC(=O)C=C)c1CCc1cc2ccccc2c2c1sc1ccc3ccccc3c12 result=">20 wt %"
compound="C=Cc1cc2ccccc2c2c1sc1ccc3ccccc3c12 [Comparative Example 3, reference compound]" result="<1.5 wt %"
compound=C=C(C)C(=O)Oc1cc2ccccc2cc1CCc1cc2ccccc2c2c1sc1ccc3ccccc3c12 result=">20 wt %"

###

procedureDetails: Refractive index measurement (Abbe's refractometer, acetone solutions, analytical curve extrapolated)
Format: physicochemical
testContext: light of 589 nm, 25±1° C., extrapolated to volume fraction 1
Method: A refractive index measuring method will be described below. Average refractive indices of the respective compounds to light of 589 nm at room temperature 25±1° C. were measured by an Abbe's refractometer (ER-1, produced by Erma, Inc.) and were plotted against volume fraction of each compound, to form analytical curves (the densities of the compounds were all 1.00 g/cm^3). […]
Property: Refractive index (589 nm); scope: individual compounds
reportedEndpoint: Refractive index (589 nm)

smilesstructure=C=C(C)C(=O)Oc1cccc(CCc2cc3ccccc3c3c2sc2ccc4ccccc4c23)c1 numericresult=1.8
smilesstructure=C=C(C)C(=O)Oc1cc2ccccc2cc1CCc1cc2ccccc2c2c1sc1ccc3ccccc3c12 numericresult=1.81
smilesstructure=C=C(C)C(=O)Oc1cccc(OC(=O)C(=C)C)c1CCc1cc2ccccc2c2c1sc1ccc3ccccc3c12 numericresult=1.73
smilesstructure=C=CC(=O)Oc1cccc(OC(=O)C=C)c1CCc1cc2ccccc2c2c1sc1ccc3ccccc3c12 numericresult=1.72

###

procedureDetails: Refractive index measurement (Abbe's refractometer, acetone solutions, analytical curve extrapolated)
Type: physicochemical
testContext: light of 589 nm, 25±1° C., extrapolated to volume fraction 1
# Refractive index (589 nm) values compiled below
reportedEndpoint: Refractive index (589 nm)

molecule="c1ccc2c(c1)ccc1sc3ccc4ccccc4c3c12 [Comparative Example 4, reference compound]" numericresult=1.81
molecule=C=C(CCCCCCCCCC)C(=O)Oc1ccccc1CCc1cc2ccccc2c2c1sc1ccc3ccccc3c12 numericresult=1.7
molecule="C=C(C)C(=O)OCc1cc2ccccc2c2c1sc1ccc3ccccc3c12 [Comparative Example 1, reference compound]" numericresult=1.73
molecule=C=C(C)C(=O)Oc1ccc2ccccc2c1CCc1cc2ccccc2c2c1sc1ccc3ccccc3c12 numericresult=1.81
molecule="C=C(C)C(=O)OC(C)c1cc2ccccc2c2c1sc1ccc3ccccc3c12 (stereo not drawn) [Comparative Example 2, reference compound]" numericresult=1.71
molecule="C=C(C)C(=O)Oc1ccccc1CCc1cc2ccccc2c2c1sc1ccc3ccccc3c12 [Example 1]" numericresult=1.8
molecule="C=C(C)C(=O)Oc1ccccc1CCc1cc2ccccc2c2c1sc1ccc3ccccc3c12 [Example 5]" numericresult=1.7
molecule=C=C(C)C(=O)Oc1ccc(CCc2cc3ccccc3c3c2sc2ccc4ccccc4c23)cc1 numericresult=1.8
molecule="C=Cc1cc2ccccc2c2c1sc1ccc3ccccc3c12 [Comparative Example 3, reference compound]" numericresult=1.8

###

procedureDetails: Transparency evaluation of resin compatible film with polyvinyl acetate (visual inspection)
Type: physicochemical
Design: key: Good: Transparency is good.; Poor: Coloration is present
testContext: 3 μm film, 10 mg compound + 10 mg polyvinyl acetate, visual inspection
reportedEndpoint: Transparency

compound="C=C(C)C(=O)Oc1ccccc1CCc1cc2ccccc2c2c1sc1ccc3ccccc3c12 [Example 5]" reportedendpoint=Transparency result=Good
compound=C=C(C)C(=O)Oc1cc2ccccc2cc1CCc1cc2ccccc2c2c1sc1ccc3ccccc3c12 reportedendpoint=Transparency result=Good
compound="C=C(C)C(=O)OC(C)c1cc2ccccc2c2c1sc1ccc3ccccc3c12 (centres unmarked) [Comparative Example 2, reference compound]" reportedendpoint=Transparency result=Poor
compound="C=C(C)C(=O)OCc1cc2ccccc2c2c1sc1ccc3ccccc3c12 [Comparative Example 1, reference compound]" reportedendpoint=Transparency result=Good
compound="C=Cc1cc2ccccc2c2c1sc1ccc3ccccc3c12 [Comparative Example 3, reference compound]" reportedendpoint=Transparency result=Poor

Data credit: patent US20210040061A1
